Target: sigma-1 receptor (Cavia porcellus, UniProt Q60492)
Sequence (Q60492 whole entry): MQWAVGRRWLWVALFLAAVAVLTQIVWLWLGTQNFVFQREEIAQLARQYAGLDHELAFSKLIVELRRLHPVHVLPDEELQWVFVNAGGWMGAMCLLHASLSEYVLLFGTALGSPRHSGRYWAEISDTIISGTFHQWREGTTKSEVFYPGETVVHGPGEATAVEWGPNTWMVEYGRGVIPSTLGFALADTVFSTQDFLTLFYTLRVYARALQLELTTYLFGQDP
pKi: −log10 of the molar value. Where a name gives a salt, the structure may show the parent alone.
ASSAY_ENDPOINT: pKi

A selection of reference data follows.
CC(=O)N1Cc2c(-c3ccccc3)nnn2[C@@H]2CN(Cc3ccccc3)C[C@H]21 (racemic) [Example 4, hydrochloride]: 6.30 to 7.00
Fc1ccccc1-c1nnn2c1CN[C@@H]1CN(Cc3ccccc3)C[C@H]12 [Example 29, hydrochloride]: > 7.00
CCCN1Cc2c(-c3ccccc3)nnn2[C@@H]2CNC[C@H]21 (racemic) [Example 10, hydrochloride]: < 6.30

Please look at the following compound next.
Record for c1ccc(CN2C[C@H]3NCCc4c(-c5ccccc5)nnn4[C@H]3C2)cc1 [Example 34, hydrochloride] under target or system sigma-1 receptor (Cavia porcellus, UniProt Q60492): pKi reported as 6.30 to 7.00

###

Target: sigma-1 receptor (Cavia porcellus, UniProt Q60492)
pKi: −log10 of the molar value. Counter-ions that a name gives are not always drawn.
ASSAY_ENDPOINT: pKi

A selection of reference data follows.
c1ccc(CN2C[C@@H]3[C@@H](C2)NCc2c(-c4ccccc4)nnn23)cc1 (racemic) [Example 1, hydrochloride]: > 7.00
CCCN1Cc2c(-c3ccccc3)nnn2[C@@H]2CN(Cc3ccccc3)C[C@H]21 (racemic) [Example 9, hydrochloride]: > 7.00
CC(C)(C)OC(=O)N1Cc2c(-c3ccccc3)nnn2[C@@H]2CNC[C@H]21 (racemic): < 6.30
CCC(=O)N1Cc2c(-c3ccccc3)nnn2[C@@H]2CN(Cc3ccccc3)C[C@H]21 (racemic) [Example 17, hydrochloride]: 6.30 to 7.00
CCC(=O)N1CCc2c(-c3ccccc3)nnn2[C@@H]2CN(Cc3ccccc3)C[C@@H]21 (racemic) [Example 33, hydrochloride]: 6.30 to 7.00
Fc1ccc(CN2C[C@@H]3[C@@H](C2)NCc2c(-c4ccccc4)nnn23)cc1 [Example 24, hydrochloride]: > 7.00
c1ccc(CN2C[C@@H]3NCCc4c(-c5ccccc5)nnn4[C@@H]3C2)cc1 [Example 35, hydrochloride]: > 7.00
CC(C)(C)OC(=O)N1Cc2c(-c3ccccc3)nnn2[C@@H]2CN(Cc3ccc(F)cc3)C[C@H]21 (racemic): < 6.30

Record for c1ccc(-c2nnn3c2CN[C@@H]2CN(CC4CCOCC4)C[C@H]23)cc1 [Example 27, hydrochloride] under target or system sigma-1 receptor (Cavia porcellus, UniProt Q60492): pKi reported as 6.30 to 7.00

Record for FC(F)(F)c1ccc(CN2C[C@@H]3[C@@H](C2)NCc2c(-c4ccccc4)nnn23)cc1 [Example 26, hydrochloride] under target or system sigma-1 receptor (Cavia porcellus, UniProt Q60492): pKi reported as 6.30 to 7.00

Record for O=C1N[C@H]2CN(Cc3ccccc3)C[C@H]2n2nnc(-c3ccccc3)c21 (racemic) under target or system sigma-1 receptor (Cavia porcellus, UniProt Q60492): pKi reported as < 6.30

Record for CN1Cc2c(-c3ccccc3)nnn2[C@@H]2CN(Cc3ccccc3)C[C@H]21 (racemic) [Example 16, hydrochloride] under target or system sigma-1 receptor (Cavia porcellus, UniProt Q60492): pKi reported as > 7.00

Record for CCCCCN1C[C@@H]2NCc3c(-c4ccccc4)nnn3[C@@H]2C1 (racemic) under target or system sigma-1 receptor (Cavia porcellus, UniProt Q60492): pKi reported as > 7.00

Record for CCCN1CCc2c(-c3ccccc3)nnn2[C@@H]2CN(Cc3ccccc3)C[C@@H]21 (racemic) [Example 31, hydrochloride] under target or system sigma-1 receptor (Cavia porcellus, UniProt Q60492): pKi reported as > 7.00
